Values from patent US20260193271A1

- Tested on: SW480 (G12V)
- assay procedure: In vitro cell proliferation inhibition test (CellTiter-Glo), SW480
- Type: cell-based
- experimental setup: Homo sapiens, SW480 colon cell line, KRAS (p.G12V), 72 h co-incubation
This listing pairs compounds with measured IC50.

{"compound": "CCn1c(-c2cc(-c3cnn(C4CN(C)C4)c3)cnc2[C@H](C)OC)c2c3cc(ccc31)-c1csc(n1)C[C@H](NC(=O)[C@H]1[C@H](C)[C@@H]1C)C(=O)N1CCC[C@H](N1)C(=O)OCC(C)(C)C2 (atropisomer, axis not shown) [Compound 17]", "units of measure": "nM", "IC50": 2.5}
{"compound": "CCn1c(-c2cc(-c3cc(C4CN(C)C4)on3)cnc2[C@H](C)OC)c2c3cc(ccc31)-c1csc(n1)C[C@H](NC(=O)[C@H]1C[C@@H]1C)C(=O)N1CCC[C@H](N1)C(=O)OCC(C)(C)C2 (atropisomer, axis not shown) [Compound 31]", "units of measure": "nM", "IC50": 2}
{"compound": "CCn1c(-c2cc(-c3cnc(CN4CCCCC4)nc3)cnc2[C@H](C)OC)c2c3cc(ccc31)-c1csc(n1)C[C@H](NC(=O)[C@H]1C[C@@H]1C)C(=O)N1CCC[C@H](N1)C(=O)OCC(C)(C)C2 (atropisomer, axis not shown) [Compound 55]", "units of measure": "nM", "IC50": 15}
{"compound": "CCn1c(-c2cc(-c3cc(CN4CCOCC4)ccn3)cnc2[C@H](C)OC)c2c3cc(ccc31)-c1csc(n1)C[C@H](NC(=O)[C@H]1C[C@@H]1C)C(=O)N1CCC[C@H](N1)C(=O)OCC(C)(C)C2 (atropisomer, axis not shown) [Compound 11]", "units of measure": "nM", "IC50": 3.2}

---

- Test system: SW480 (G12V)
- assay procedure: In vitro cell proliferation inhibition test (CellTiter-Glo), SW480
- Type: cell-based
- experimental setup: Homo sapiens, SW480 colon cell line, KRAS (p.G12V), 72 h co-incubation

{"compound": "CCn1c(-c2cc(-c3ccc(CN4CC[C@@H](S(C)(=O)=O)C4)cn3)cnc2[C@H](C)OC)c2c3cc(ccc31)-c1csc(n1)C[C@H](NC(=O)[C@H]1C[C@@H]1C)C(=O)N1CCC[C@H](N1)C(=O)OCC(C)(C)C2 (atropisomer, axis not shown) [Compound 50]", "units of measure": "nM", "IC50": 7.8}
{"compound": "CCn1c(-c2cc(-c3cc([C@H]4CCCN4C)on3)cnc2[C@H](C)OC)c2c3cc(ccc31)-c1csc(n1)C[C@H](NC(=O)[C@H]1C[C@@H]1C)C(=O)N1CCC[C@H](N1)C(=O)OCC(C)(C)C2 (atropisomer, axis not shown) [Compound 24]", "units of measure": "nM", "IC50": 19}
{"compound": "CCn1c(-c2cc(-c3ccc(CN4CC[C@@H](F)C4)cc3)cnc2[C@H](C)OC)c2c3cc(ccc31)-c1csc(n1)C[C@H](NC(=O)[C@H]1C[C@@H]1C)C(=O)N1CCC[C@H](N1)C(=O)OCC(C)(C)C2 (atropisomer, axis not shown) [Compound 6]", "units of measure": "nM", "IC50": 23}
{"compound": "CCn1c(-c2cc(-c3cnc(CN4CCOCC4)cn3)cnc2[C@H](C)OC)c2c3cc(ccc31)-c1csc(n1)C[C@H](NC(=O)[C@H]1C[C@@H]1C)C(=O)N1CCC[C@H](N1)C(=O)OCC(C)(C)C2 (atropisomer, axis not shown) [Compound 35]", "units of measure": "nM", "IC50": 2}

---

- Tested on: SW480 (G12V)
- assay procedure: In vitro cell proliferation inhibition test (CellTiter-Glo), SW480
- Assay type: cell-based
- experimental setup: Homo sapiens, SW480 colon cell line, KRAS (p.G12V), 72 h co-incubation
This listing pairs molecules with measured IC50.
readout name: IC50 (nM)

{"molecule": "CCn1c(-c2cc(-c3cc4c(cn3)CN(C)C4)cnc2[C@H](C)OC)c2c3cc(ccc31)-c1csc(n1)C[C@H](NC(=O)[C@H]1C[C@@H]1C)C(=O)N1CCC[C@H](N1)C(=O)OCC(C)(C)C2 (atropisomer, axis not shown)", "target of assay": "SW480 (G12V)", "readout name": "IC50", "units of measure": "nM", "reported value": 3.8}
{"molecule": "CCn1c(-c2cc(-c3cc(CN4CCOCC4)on3)cnc2[C@H](C)OC)c2c3cc(ccc31)-c1csc(n1)C[C@H](NC(=O)[C@H]1C[C@@H]1C)C(=O)N1CCC[C@H](N1)C(=O)OCC(C)(C)C2 (atropisomer, axis not shown)", "target of assay": "SW480 (G12V)", "readout name": "IC50", "units of measure": "nM", "reported value": 10}
{"molecule": "CCn1c(-c2cc(-c3cc([C@H]4CN(C)CCO4)on3)cnc2[C@H](C)OC)c2c3cc(ccc31)-c1csc(n1)C[C@H](NC(=O)[C@H]1[C@H](C)[C@@H]1C)C(=O)N1CCC[C@H](N1)C(=O)OCC(C)(C)C2 (atropisomer, axis not shown)", "target of assay": "SW480 (G12V)", "readout name": "IC50", "units of measure": "nM", "reported value": 2.5}
{"molecule": "CCn1c(-c2cc(-c3cnc(N4CCOCC4)nc3)cnc2[C@H](C)OC)c2c3cc(ccc31)-c1csc(n1)C[C@H](NC(=O)[C@H]1C[C@@H]1C)C(=O)N1CCC[C@H](N1)C(=O)OCC(C)(C)C2 (atropisomer, axis not shown)", "target of assay": "SW480 (G12V)", "readout name": "IC50", "units of measure": "nM", "reported value": 21}

---

- Test system: SW480 (G12V)
- assay procedure: In vitro cell proliferation inhibition test (CellTiter-Glo), SW480
- Format: cell-based
- experimental setup: Homo sapiens, SW480 colon cell line, KRAS (p.G12V), 72 h co-incubation
This listing pairs compounds with measured IC50.
readout name: IC50

{"compound": "CCn1c(-c2cc(-c3cnc(CN4CCN(CCOC)CC4)nc3)cnc2[C@H](C)OC)c2c3cc(ccc31)-c1csc(n1)C[C@H](NC(=O)[C@H]1C[C@@H]1C)C(=O)N1CCC[C@H](N1)C(=O)OCC(C)(C)C2 (atropisomer, axis not shown)", "target of assay": "SW480 (G12V)", "reported value": "30 nM"}
{"compound": "CCn1c(-c2cc(-c3cccc(CN4CCOCC4)n3)cnc2[C@H](C)OC)c2c3cc(ccc31)-c1csc(n1)C[C@H](NC(=O)C1C[C@@H]1C)C(=O)N1CCC[C@H](N1)C(=O)OCC(C)(C)C2 (stereo partly drawn)", "target of assay": "SW480 (G12V)", "reported value": "2 nM"}
{"compound": "CCn1c(-c2cc(-c3cnc(CN4CCN(C)CC4)nc3)cnc2[C@H](C)OC)c2c3cc(ccc31)-c1csc(n1)C[C@H](NC(=O)[C@H]1C[C@@H]1C)C(=O)N1CCC[C@H](N1)C(=O)OCC(C)(C)C2 (atropisomer, axis not shown)", "target of assay": "SW480 (G12V)", "reported value": "1.7 nM"}

---

This listing pairs compounds with measured IC50.
- Tested on: SW480 (G12V)
- assay procedure: In vitro cell proliferation inhibition test (CellTiter-Glo), SW480
- Format: cell-based
- experimental setup: Homo sapiens, SW480 colon cell line, KRAS (p.G12V), 72 h co-incubation

{"compound": "CCn1c(-c2cc(-c3cccc(CN(C)C)c3)cnc2[C@H](C)OC)c2c3cc(ccc31)-c1csc(n1)C[C@H](NC(=O)[C@H]1[C@H](C)[C@@H]1C)C(=O)N1CCC[C@H](N1)C(=O)OCC(C)(C)C2 (atropisomer, axis not shown)", "IC50": "1.6 nM"}
{"compound": "CCn1c(-c2cc(-c3cncc(CN4CCS(=O)(=O)CC4)c3)cnc2[C@H](C)OC)c2c3cc(ccc31)-c1csc(n1)C[C@H](NC(=O)[C@H]1[C@H](C)[C@@H]1C)C(=O)N1CCC[C@H](N1)C(=O)OCC(C)(C)C2 (atropisomer, axis not shown)", "IC50": "1.8 nM"}
{"compound": "CCn1c(-c2cc(-c3cnc(CN4CCOCC4)nc3)cnc2[C@H](C)OC)c2c3cc(ccc31)-c1csc(n1)C[C@H](NC(=O)[C@H]1C[C@@H]1C)C(=O)N1CCC[C@H](N1)C(=O)OCC(C)(C)C2 (atropisomer, axis not shown)", "IC50": "3.4 nM"}
{"compound": "CCn1c(-c2cc(-c3ncc(CN4CCS(=O)(=O)CC4)cn3)cnc2[C@H](C)OC)c2c3cc(ccc31)-c1csc(n1)C[C@H](NC(=O)[C@H]1C[C@@H]1C)C(=O)N1CCC[C@H](N1)C(=O)OCC(C)(C)C2 (atropisomer, axis not shown)", "IC50": "1.2 nM"}
